# ASSAY_EXPLANATION: Human hepatocyte stability assay
# Format: in vitro ADME
# EXPERIMENTAL_CONDITIONS: 1 μM compound, 1*10^6 cells/mL, 2-120 min
Each item that follows carries a reported Clearance of Human hepatocyte (μL/min/10^6 cell).

Known Clearance of Human hepatocyte (μL/min/10^6 cell) results, listed for orientation:
>  <COMPOUND>
Cc1c(C2CC2)cnc2c(-c3ccc(F)c4[nH]ncc34)c(N)c(=O)[nH]c12 [Example 100]

>  <REPORTED_RESULT>
<1 μL/min/10^6 cell

$$$$
>  <COMPOUND>
Cc1ncc(OCC(F)(F)F)c2c(-c3ccc(F)c4[nH]ncc34)c(N)c(=O)[nH]c12 [Example 183]

>  <REPORTED_RESULT>
<1 μL/min/10^6 cell

$$$$
>  <COMPOUND>
[2H]C([2H])([2H])c1cnc2c(-c3ccc(F)c4[nH]ncc34)c(N)c(=O)[nH]c2c1C [Example 101]

>  <REPORTED_RESULT>
<1 μL/min/10^6 cell

$$$$
>  <COMPOUND>
COc1cnc2c(-c3ccc(F)c4[nH]ncc34)c(N)c(=O)[nH]c2c1C [Example 136]

>  <REPORTED_RESULT>
1.4 μL/min/10^6 cell

$$$$
>  <COMPOUND>
Cc1cnc2c(-c3ccc(Cl)c4[nH]ncc34)c(N)c(=O)[nH]c2c1C [Example 146]

>  <REPORTED_RESULT>
1.2 μL/min/10^6 cell

$$$$
>  <COMPOUND>
Cc1c(Cl)cnc2c(-c3ccc(F)c4[nH]ncc34)c(N)c(=O)[nH]c12 [Example 099]

>  <REPORTED_RESULT>
<1 μL/min/10^6 cell

$$$$

## Task Recorded Clearance of Human hepatocyte (μL/min/10^6 cell) of N#Cc1nc(C2CC2)cc2[nH]c(=O)c(N)c(-c3ccc(F)c4[nH]ncc34)c12 [Example 167] , please.
## Result <1 μL/min/10^6 cell

## Task Recorded Clearance of Human hepatocyte (μL/min/10^6 cell) of Nc1c(-c2ccc(F)c3[nH]ncc23)c2c(Cl)nc(C3CC3)cc2[nH]c1=O [Example 163] , please.
## Result <1 μL/min/10^6 cell
